test: 12-month dog toxicity and toxicokinetic study; format: in vivo; conditions: female, beagle, dog, plasma, po, 6 mg/kg/day, females, 6 mg/kg/day, Day 0
metric: Tmax

Query block: So what does the record say about Tmax for Clc1ccc([C@]23CNC[C@H]2C3)cc1Cl ?
Result block: 1.3 h

* * *

experiment: in vivo; settings: male, Crl:CD-1(ICR) BR, mouse, po, 10 mg/kg/day, Tmax
metric: Tmax (h)
Write the answer as a number in h, unit excluded.

Query block: So what does the record say about Tmax for Clc1ccc([C@]23CNC[C@H]2C3)cc1Cl ?
Result block: 1

* * *

assay: 2-week rat toxicology and toxicokinetic study; assay type: in vivo; details: female, Crl:CD (SD)IGS BR, rat, in vivo, po, 20 mg/kg/day, females, 20 mg/kg/day, Day 13
metric: Cmax (ng/mL)
Write the answer as a number in ng/mL, unit excluded.

Query block: So what does the record say about Cmax for Clc1ccc([C@]23CNC[C@H]2C3)cc1Cl [amitifadine] ?
Result block: 2300
